Values compiled from paper PMC9352680.

- measured_on: T1, PUF4 RNA-binding domain (Saccharomyces cerevisiae, UniProt P25339 537-888)
- T1 sequence: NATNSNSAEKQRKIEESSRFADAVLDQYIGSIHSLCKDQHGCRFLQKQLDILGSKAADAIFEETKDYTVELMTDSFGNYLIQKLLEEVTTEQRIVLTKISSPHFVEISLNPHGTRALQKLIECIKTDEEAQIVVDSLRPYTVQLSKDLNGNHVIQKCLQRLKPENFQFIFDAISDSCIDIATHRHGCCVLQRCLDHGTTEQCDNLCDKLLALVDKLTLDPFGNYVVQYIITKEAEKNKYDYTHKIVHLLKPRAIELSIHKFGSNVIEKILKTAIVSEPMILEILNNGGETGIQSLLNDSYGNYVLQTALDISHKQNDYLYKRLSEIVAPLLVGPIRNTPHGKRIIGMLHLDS
- assay_comment: Mg; RNA-MaP; 20 mM Na-HEPES pH 7.4, 30 mM KOAc, 0.75 mM MgCl2, 0.1% Tween-20, 5% glycerol, 0.1 mg/mL BSA, 2 mM DTT; 25 C; 0.0125-409.6 nM protein
- condition_description: tags: N-His6-TEV cleaved; C-SNAP kept, Cy3B-labelled; label: tethered on chip by stalled RNA polymerase
pKd: −log10 of the molar value.
Rule: pKd of 8 or more gives MET; anything lower gives NOT MET.

{"binder": "UCUCUUUGUAACAUUAUCUCUU (ssRNA) [Ib_S1_P5E.1_K5.1_C5.1_H5.1_A5.1_[T5A]_[T6C]_F5.1_T5.1]", "category_label": "MET"}
{"binder": "Ib_S4_P5E.1_K5.1_C5.1_H5.1_A5.1_[A7T]_F5.1_[T9C]_T5.1 (ssRNA) RNA: UUUGACAACUGAUCGUUCUUUCUUGUAUUUUCAUUCUUUCUCGAUCAGUUGUCUUU", "category_label": "NOT MET"}
{"binder": "UCUCUUUGUAGCACUUUCUCUU (ssRNA) [Ic_S1_P5E.1_K5.1_C5.1_H5.1_A5.1_[T5G]_[T6C]_F5.1_[T8C]_[A10T]_T5.1]", "category_label": "NOT MET"}
{"binder": "Id_ii_S4_P3E.3_K3.2_C3.2_[C-2A]_[T-1C]_H3.2_A3.1_F3.1_T3.2_[T9C]_[A10T] (ssRNA) RNA: UUUGACAACUGAUCGUUCUUUCUACUAUAUAUACUUUCUUUCUCGAUCAGUUGUCUUU", "category_label": "NOT MET"}
